Provenance of the data: ChEMBL document CHEMBL1250528

procedureDetails: Cmax in Sprague-Dawley rat at 2.5 mg/kg, iv and 10 mg/kg, po
Assay type: ADME, organism-based
conditionParameters: in vivo
valueType: Cmax (µM)
Please reply with the bare figure in µM and do not write the unit itself.

Param item = CCCNC(=O)c1cn2ncnc(Nc3cc(C(=O)NC4CC4)ccc3C)c2c1C [BMS-582949] ; retrieve measured Cmax.
7

----------
procedureDetails: Cmax in BALB/c mouse at 5 mg/kg, iv and 10 mg/kg, po
Type: ADME, organism-based
conditionParameters: in vivo
valueType: Cmax (µM)
Report the value in µM with no unit label.

Quick one: Cmax of CCCNC(=O)c1cn2ncnc(Nc3cc(C(=O)NC4CC4)ccc3C)c2c1C [BMS-582949] ?
15.3
